# Experiment Summary: Corneal permeability in a diffusion chamber
# Assay type: in vitro ADME, rabbit
# Experimental Parameters: rabbit eye cornea, diffusion chamber, epithelium side to endothelium side; read-out: Permeability coefficient Papp
Readout Type: Papp (×10⁻⁶ cm/s)

1. CCCC(=O)OC[C@H](Cc1cncn1C)[C@H](CC)C(=O)OCc1ccc(COC(=O)[C@@H](CC)[C@H](COC(=O)CCC)Cc2cncn2C)cc1 [Example 11] = 21.5

[A] CCC(=O)OC[C@H](Cc1cncn1C)[C@H](CC)C(=O)OCc1ccccc1 [propionyl, benzyl, reference compound]
[B] CC[C@H](C(=O)OCc1ccccc1)[C@H](COC(=O)c1cccc(Cl)c1)Cc1cncn1C [3-chloro-benzoyl, benzyl, reference compound]
Kindly compare A with B and tell me which has the lower Papp figure. The response must carry the label of the picked entry. B

[I] CC[C@H](C(=O)OCc1ccccc1)[C@H](COC(=O)c1ccccc1)Cc1cncn1C [benzoyl, benzyl, reference compound]
[II] CC[C@H](C(=O)OCc1ccc(COC(=O)[C@@H](CC)[C@H](COC(=O)C2CC2)Cc2cncn2C)cc1)[C@H](COC(=O)C1CC1)Cc1cncn1C [Example 13]
[III] CC[C@@H]1C(=O)OC[C@@H]1Cc1cncn1C [Pilocarpine]
Returns the items ordered by Papp, from maximum to minimum. I'd appreciate it if you listed the labels in the requested order. II, I, III
(II: 15.8 ×10⁻⁶ cm/s, I: 8.7 ×10⁻⁶ cm/s, III: 4.1 ×10⁻⁶ cm/s)

###

# Experiment Summary: Enzyme hydrolysis in plasma/buffer pH 7.4 mixture (80%-20%)
# Format: in vitro ADME
# Experimental Parameters: plasma/buffer pH 7.4 (80%-20%), 37°C
Readout Type: Degradation coefficient (k) in plasma (80%), 37°C (min⁻¹)

1) CCCCC(=O)OC[C@H](Cc1cncn1C)[C@H](CC)C(=O)OCc1ccc(COC(=O)[C@@H](CC)[C@H](COC(=O)CCCC)Cc2cncn2C)cc1 [Example 12] = 0.05734
2) CC[C@H](C(=O)OCc1ccccc1)[C@H](COC(C)=O)Cc1cncn1C [acetyl, benzyl, reference compound] = 0.04353

[I] CCCC(=O)OC[C@H](Cc1cncn1C)[C@H](CC)C(=O)OCc1ccc(COC(=O)[C@@H](CC)[C@H](COC(=O)CCC)Cc2cncn2C)cc1 [Example 11]
[II] CC[C@H](C(=O)OCc1ccccc1)[C@H](COC(=O)c1ccccc1)Cc1cncn1C [benzoyl, benzyl, reference compound]
[III] CCC(=O)OC[C@H](Cc1cncn1C)[C@H](CC)C(=O)OCc1ccc(COC(=O)[C@@H](CC)[C@H](COC(=O)CC)Cc2cncn2C)cc1 [Example 10]
Put these in order: smallest Degradation coefficient (k) in plasma (80%), 37°C first, largest last. Record the ranking as a list of labels in the requested order. II, I, III
(II: 0.038 min⁻¹, I: 0.06149 min⁻¹, III: 0.1184 min⁻¹)

###

# Experiment Summary: Enzyme hydrolysis in plasma/buffer pH 7.4 mixture (80%-20%)
# Format: in vitro ADME
# Experimental Parameters: 80% plasma/buffer, pH 7.4
Readout Type: half-life (min)

1. CC[C@H](C(=O)OCc1ccccc1)[C@H](COC(=O)CCCC(=O)OC[C@H](Cc1cncn1C)[C@H](CC)C(=O)OCc1ccccc1)Cc1cncn1C [Example 16, O,O'-Glutaryl (dibenzyl) bispilocarpate] = 14

[I] CC[C@H](C(=O)OCc1ccc(COC(=O)[C@@H](CC)[C@H](COC(C)=O)Cc2cncn2C)cc1)[C@H](COC(C)=O)Cc1cncn1C [Example 9]
[II] CC[C@H](C(=O)OCc1ccccc1)[C@H](COC(=O)CCC(=O)OC[C@H](Cc1cncn1C)[C@H](CC)C(=O)OCc1ccccc1)Cc1cncn1C [Example 17, O,O'-Succinyl (dibenzyl) bispilocarpate]
// pick larger half-life from pair: I vs II Your answer should be the label of the entry you select. II
